# SYSTEM TESTED: Single-strand selective monofunctional uracil DNA glycosylase (Homo sapiens);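 further: enzymatic SMUG1 assay coupled with APE1, reading fluorescence at 594 nm released when a quenched double-stranded DNA oligonucleotide substrate is cleaved and separated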
# TEST PARAMETERS: Compound Concentration 10.0 uM, Hit No
# Description: Inhibition of SMUG1 by quantifying inhibition of SMUG1-mediated cleavage and dissociation of quenched duplex DNA oligonucleotides, measured as fluorescence at 594 nm. To generate a functional strand incision and increase turn-over this assay is coupled to APE1.
I'd appreciate it if you could supply inhibition values for the items below.
Reply numerically in %, unit not repeated.

## Input Could you share which inhibition value was measured for C=C(C)[C@H]1CN[C@H](C(=O)O)[C@H]1CC(=O)O ?
## Output -0.636

## Input Could you share which inhibition value was measured for C[C@@H](N)Cc1c[nH]cn1 ?
## Output -2.12

## Input Could you share which inhibition value was measured for Cc1c(C(=O)Nc2cccc(C(F)(F)F)c2)cc(-c2ccccc2)n1CCCN1CCOCC1 ?
## Output 6.03

## Input Could you share which inhibition value was measured for CC(=O)Nc1cccc2c1c(Sc1ccc(Cl)cc1)c(C)n2CC(=O)O ?
## Output -1.39

## Input Could you share which inhibition value was measured for Cc1cn([C@H](C)CC#N)c(=O)c2cc(Cn3nc(C(F)F)cc3Cl)nn12 ?
## Output 9.99

## Input Could you share which inhibition value was measured for COc1cc(O)c(C(CC(=O)N2C[C@H](C)C[C@H](C)C2)c2ccc3c(c2)OCO3)c(OC)c1 (stereo not given in full) ?
## Output 8.36

## Input Could you share which inhibition value was measured for Clc1ccc(CCCOCCCN2CCCCC2)cc1 ?
## Output -0.857

## Input Could you share which inhibition value was measured for C[C@H](NC(=O)c1cnc2n1[C@](C)(Cc1ccc(C#N)cc1)C(=O)N2c1cc(Cl)c(F)c(Cl)c1)C(=O)NC1(c2ccccn2)CC1 ?
## Output 22.8

## Input Could you share which inhibition value was measured for Cc1nc(C(=O)N2CCC[C@H]2Cc2nnc(-c3ccccc3)o2)c(-c2ccccc2F)s1 ?
## Output -4.93

## Input Could you share which inhibition value was measured for CN[C@@H]1Cc2cccc3[nH]c(=O)n(c23)C1 ?
## Output 0.551

## Input Could you share which inhibition value was measured for CC(C=CC1=C(C)CCCC1(C)C)=CC=CC(C)=CC(=O)O ?
## Output 8.2

## Input Could you share which inhibition value was measured for Cn1cc(-c2ccc3occ(-c4ccccc4-c4ccccc4)c3n2)cn1 ?
## Output 17.5

## Input Could you share which inhibition value was measured for CCc1ccc(OCc2ccccc2C(=O)Nc2ccc3nc(C)cc(N)c3c2)cc1 ?
## Output -3.13

## Input Could you share which inhibition value was measured for Cc1noc(-c2ccc(-c3ccc(CC(=O)O)cc3)cc2)c1NC(=O)O[C@H](C)c1ccccc1Cl ?
## Output -3.86

## Input Could you share which inhibition value was measured for NC(=O)c1cc(-c2ccc(S(=O)(=O)[C@H]3CC[C@H](Nc4ccc(C(F)(F)F)cn4)CC3)cc2)ccn1 ?
## Output 12.2

## Input Could you share which inhibition value was measured for Cc1cn([C@@H](C)CC#N)c(=O)c2cc(Cn3nc(C(F)F)cc3Cl)nn12 ?
## Output 19.8

## Input Could you share which inhibition value was measured for O=C(Nc1ccc(Cl)nc1)c1ccc(Cl)cc1 ?
## Output 3.71

## Input Could you share which inhibition value was measured for C[C@@H](c1cccc(CN)c1)n1cc(Cl)cc(C(N)=O)c1=N ?
## Output 3.56

## Input Could you share which inhibition value was measured for FC(F)(F)c1ccc2c(c1)nc(-c1cccnc1)n2C1CC1 ?
## Output 3.68

## Input Could you share which inhibition value was measured for CCOC(=O)N[C@@H]1CC[C@@H]2[C@@H](C1)C[C@H]1C(=O)O[C@H](C)[C@H]1[C@H]2/C=C/c1ccc(-c2cccc(F)c2)cn1 ?
## Output 10.5
